# target_or_system: rapidly delayed rectifier potassium channel current (IKr) (Cavia porcellus, UniProt O08703)
# Construct: the Guinea pig myocardial cells are separated with enzymolysis; endogenous in cells; host or cells: freshly isolated guinea pig ventricular myocytes
# Sequence (O08703 1-1294): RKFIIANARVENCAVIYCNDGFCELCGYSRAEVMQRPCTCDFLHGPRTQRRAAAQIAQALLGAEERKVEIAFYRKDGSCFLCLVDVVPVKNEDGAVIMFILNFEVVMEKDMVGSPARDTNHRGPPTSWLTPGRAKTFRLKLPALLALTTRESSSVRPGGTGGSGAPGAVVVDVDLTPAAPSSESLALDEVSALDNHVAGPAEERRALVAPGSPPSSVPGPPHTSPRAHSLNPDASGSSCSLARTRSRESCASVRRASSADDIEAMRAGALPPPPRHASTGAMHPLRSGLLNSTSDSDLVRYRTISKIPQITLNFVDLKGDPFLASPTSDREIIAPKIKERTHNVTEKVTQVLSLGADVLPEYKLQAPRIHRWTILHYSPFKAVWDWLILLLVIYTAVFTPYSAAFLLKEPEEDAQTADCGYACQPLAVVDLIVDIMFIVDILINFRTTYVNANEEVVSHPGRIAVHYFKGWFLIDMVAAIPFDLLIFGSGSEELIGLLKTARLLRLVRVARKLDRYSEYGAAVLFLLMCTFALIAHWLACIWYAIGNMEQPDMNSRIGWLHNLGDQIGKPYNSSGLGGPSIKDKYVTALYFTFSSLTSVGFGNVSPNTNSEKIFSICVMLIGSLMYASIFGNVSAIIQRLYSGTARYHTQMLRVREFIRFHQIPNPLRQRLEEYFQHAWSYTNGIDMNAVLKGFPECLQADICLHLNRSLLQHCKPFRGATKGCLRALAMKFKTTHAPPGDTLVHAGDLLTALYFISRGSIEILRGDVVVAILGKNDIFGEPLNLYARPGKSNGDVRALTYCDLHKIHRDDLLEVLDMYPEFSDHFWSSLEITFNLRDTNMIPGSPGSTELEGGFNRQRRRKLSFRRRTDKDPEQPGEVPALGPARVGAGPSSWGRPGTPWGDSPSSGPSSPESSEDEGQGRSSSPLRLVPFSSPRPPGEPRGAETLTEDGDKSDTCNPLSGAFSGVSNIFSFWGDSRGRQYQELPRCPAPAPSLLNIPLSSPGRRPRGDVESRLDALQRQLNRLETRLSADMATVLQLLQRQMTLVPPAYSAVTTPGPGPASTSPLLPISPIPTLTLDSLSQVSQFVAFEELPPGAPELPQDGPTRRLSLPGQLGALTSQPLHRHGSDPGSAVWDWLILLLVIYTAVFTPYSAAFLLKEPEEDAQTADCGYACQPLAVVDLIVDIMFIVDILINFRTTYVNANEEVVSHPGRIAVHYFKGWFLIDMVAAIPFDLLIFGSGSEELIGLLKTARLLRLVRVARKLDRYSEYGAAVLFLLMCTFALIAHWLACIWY
# experiment: whole cell patch clamp on isolated Guinea pig myocardial cells, IKr
# Type: cell-based
# condition_notes: Guinea pig ventricular myocytes, current recorded 10 min after administration, 25-30° C.
Kindly supply the reported pIC50 values for the records listed here.
Answers are plain numbers, as −log10 of the molar value.

Completed entries (count: 6):
- smiles_structure: "CCOc1ccc2c(c1)/C(=N/N1CC(=O)N(CCCCN3CCCCC3)C1=O)CCO2"
  measured: 6.35
- smiles_structure: "COc1ccc2c(c1)/C(=N/N1CC(=O)N(CCCCN3CCN(C)CC3)C1=O)CCO2.O=C(O)/C=C/C(=O)O"
  measured: 6.00
- smiles_structure: "O=C1CN(/N=C2\\CCOc3ccc(Cl)cc32)C(=O)N1CCCCN1CCCCC1"
  measured: 8.21
- smiles_structure: "CN1CCN(CCCCN2C(=O)CN(/N=C3\\CCOc4ccc(C(N)=O)cc43)C2=O)CC1.O=C(O)/C=C/C(=O)O"
  measured: 6.35
- smiles_structure: "CCCOc1ccc2c(c1)/C(=N/N1CC(=O)N(CCCN3CCN(C)CC3)C1=O)CCO2"
  measured: 6.97
- smiles_structure: "CCCCOc1ccc2c(c1)/C(=N/N1CC(=O)N(CCCCN3CCN(C)CC3)C1=O)CCO2.O=C(O)/C=C/C(=O)O"
  measured: 6.74

## Input Request the reported pIC50 associated with CN1CCN(CCCCN2C(=O)CN(/N=C3\CCOc4ccc(Cl)cc43)C2=O)CC1.O=C(O)/C=C/C(=O)O
## Output 5.33
